# measurement-notes: BSK_LPS_SRB: Viability Assessment in the BioMAP Diversity Plus: LPS Assay (AID 2283079);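 further: total protein by sulforhodamine B absorbance as a cytotoxicity measure; measured one day after compound addition; fitted in both directions against DMSO so loss or gain of signal counts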
# measurement-parameters: primary human HUVEC with PBMC
The source made the active and inactive calls. How the source made its calls: active means hit-call score of the fitted dose curve at least 0.9, where 1 is the maximum; inactive means score below 0.9.
readout-kind: AC50

compound: CCCCCCCCC=O
readout-kind: AC50
result: inactive

compound: O=C1CCCCCCCCCCCCCCO1
readout-kind: AC50
result: inactive

compound: BrC1CCC(Br)C(Br)CCC(Br)C(Br)CCC1Br (stereo not given)
readout-kind: AC50
result: 4.63 µM (active)

compound: COC(=O)c1ccc(C)cc1
readout-kind: AC50
result: inactive

compound: c1ccc2sc(SN(C3CCCCC3)C3CCCCC3)nc2c1
readout-kind: AC50
result: inactive

# map each compound to its AC50
1. CC1COc2ccccc2N1C(=O)C(Cl)Cl (stereo not given)
2. NCCNCCN
3. OC1OC[C@@H](O)[C@H](O)[C@H]1O (stereo not given in full)
4. C=CCOC(=O)CCC1CCCCC1

Result:
1. 7.42 µM (active)
2. inactive
3. inactive
4. inactive

Noted for `C#C[C@]1(O)CC[C@H]2[C@@H]3CCC4=Cc5oncc5C[C@]4(C)[C@H]3CC[C@@]21C` : its AC50 reads 6.65 µM (active)

====

# measurement-notes: ATG_CMV_CIS: Attagene CIS-FACTORIAL HepG2 Assay for human CMV (Internal Marker) (AID 2282928);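 further: endpoint acts as a background internal control marker rather than a target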
# measurement-parameters: HepG2 CMV promoter reporter, transcription factor profiling; actives raise or lower the signal
Active and inactive are the calls of the source. The calls were made as follows: active = hit-call score of the fitted dose curve at least 0.9, where 1 is the maximum; inactive = score below 0.9.
Pick from active, inactive when you respond.

Study these solved cases before continuing.
structure-string: NCCOCCO
qualitative-label: inactive
//
structure-string: C=C[C@@H](C)CCC=C(C)C
qualitative-label: inactive
//
structure-string: O=c1cc(-c2ccccc2)oc2cc(O)cc(O)c12
qualitative-label: active

Ask: Field: outcome | Entry: `CC(=O)/C=C/C1=C(C)CCCC1(C)C`
Result: inactive

Ask: Field: outcome | Entry: `O=C(O)CCCCCCCC(=O)O`
Result: inactive

Ask: Field: outcome | Entry: `CNCCCC12CCC(c3ccccc31)c1ccccc12`
Result: active

====

# Read-out: Interleukin-8 (IL8), CXCL8 (gene 3576)
# measurement-notes: BSK_hDFCGF_IL8: BioMAP Diversity Plus: hDFCGF Assay for Interleukin-8 (IL8) Biomarker Activity (AID 2283058)
# measurement-parameters: primary human foreskin fibroblasts; actives raise or lower the signal
The source made the active and inactive calls. The calls were made as follows: active = hit-call score of the fitted dose curve at least 0.9, where 1 is the maximum; inactive = score below 0.9.
Pick from 1 for active, 0 for inactive when you respond.

compound: Nc1cc([N+](=O)[O-])ccc1Cl
qualitative-label: 0
--
compound: CC[Si](OC(C)=O)(OC(C)=O)OC(C)=O
qualitative-label: 0
--
compound: CC(=O)OCCC(C)CC(C)(C)C (stereo unspecified)
qualitative-label: 0
--
compound: NCCNCCN
qualitative-label: 0
--
compound: CCC(=O)OCc1ccccc1
qualitative-label: 0
--
compound: CCCCCCCCC=O
qualitative-label: 0
--
compound: O=C1OC2(c3cc(Br)c(O)c(Br)c3Oc3c2cc(Br)c(O)c3Br)c2c(Cl)c(Cl)c(Cl)c(Cl)c21
qualitative-label: 1
--
compound: c1ccc2sc(SN(C3CCCCC3)C3CCCCC3)nc2c1
qualitative-label: 0

Ask: Field: outcome | Entry: `CCn1c2ccccc2c2cc(N)ccc21`
Result: 0

Ask: Field: outcome | Entry: `O=C(O)C[C@H](O)C[C@H](O)/C=C/c1c(C2CC2)nc2ccccc2c1-c1ccc(F)cc1`
Result: 0

Ask: Field: outcome | Entry: `O=C1CCCCCCCCCCCCCCO1`
Result: 0

Ask: Field: outcome | Entry: `Cc1ccc(Nc2ccc(O)c3c2C(=O)c2ccccc2C3=O)cc1`
Result: 0

Ask: Field: outcome | Entry: `COC(=O)c1ccc(C)cc1`
Result: 0

Ask: Field: outcome | Entry: `O=P(c1ccccc1)(c1ccccc1)c1ccccc1`
Result: 0

Ask: Field: outcome | Entry: `CC(=O)[C@H]1CC[C@H]2[C@@H]3CC=C4C[C@@H](O)CC[C@]4(C)[C@H]3CC[C@]12C`
Result: 0

Ask: Field: outcome | Entry: `O=C(O)c1cn(-c2ccc(F)cc2)c2cc(N3CCNCC3)c(F)cc2c1=O`
Result: 0

Ask: Field: outcome | Entry: `Nc1cc([N+](=O)[O-])ccc1O`
Result: 0

Ask: Field: outcome | Entry: `C=C[Si](OCC)(OCC)OCC`
Result: 0

Ask: Field: outcome | Entry: `CC(C)Oc1ccccc1O`
Result: 0

Ask: Field: outcome | Entry: `COc1cc(C=O)ccc1OC(=O)C(C)C`
Result: 0

Ask: Field: outcome | Entry: CCCCCCCCCCCCCCCCCC(=O)OCC(CC)CCCC (stereo unspecified)
Result: 0
